Origin of values: the supplement of paper PMC13380429

system: Vero E6 infected with SARS-CoV-2; assay: inhibition of SARS-CoV-2 cytopathic effect; higher = more antiviral protection, active = above 15; conditions: 10000 nM; 48 h
I'd be grateful if you could share measured inhibition of SARS-CoV-2 cytopathic effect for these entries.
Kindly answer with a numeric value in %, unit omitted.

Looking up `NC(=O)c1ncn([C@@H]2O[C@H](CO)[C@@H](O)[C@H]2O)c1N` , I see its inhibition of SARS-CoV-2 cytopathic effect listed as -1.3

Looking up `N#Cc1ccnc(N2C(=O)CC[C@H]2C(=O)N(c2cncc(F)c2)[C@H](C(=O)NC2CC(F)(F)C2)c2ccccc2Cl)c1` , I see its inhibition of SARS-CoV-2 cytopathic effect listed as 3.82

Looking up CC(Cc1ccccc1)NCCC(c1ccccc1)c1ccccc1 (stereo not given) , I see its inhibition of SARS-CoV-2 cytopathic effect listed as 23.1

Looking up `Nc1nc2ccc(Cl)cc2c2nc(-c3ccco3)nn12` , I see its inhibition of SARS-CoV-2 cytopathic effect listed as 1.46

Looking up `O=[N+]([O-])/N=C1\NCCN1Cc1ccc(Cl)nc1` , I see its inhibition of SARS-CoV-2 cytopathic effect listed as 3.01

----------
I'd be grateful if you could share measured inhibition of SARS-CoV-2 cytopathic effect for these entries.
test system: Vero E6 infected with SARS-CoV-2; assay: inhibition of SARS-CoV-2 cytopathic effect; higher = more antiviral protection, active = above 15; conditions: 100 nM; 48 h
Kindly answer with a numeric value in %, unit omitted.

Looking up O=c1c(-c2ccc(O)cc2)coc2c([C@@H]3O[C@H](CO)[C@@H](O)[C@H](O)[C@H]3O)c(O)ccc12 [kakonein] , I see its inhibition of SARS-CoV-2 cytopathic effect listed as -3.81

Looking up `c1cc2c(cc1[C@H]1OC[C@H]3[C@@H]1CO[C@@H]3c1ccc3c(c1)OCO3)OCO2` , I see its inhibition of SARS-CoV-2 cytopathic effect listed as -0.37

Looking up `C=CCN1CC[C@]23CCCC[C@H]2[C@H]1Cc1ccc(O)cc13` , I see its inhibition of SARS-CoV-2 cytopathic effect listed as -1.34

Looking up `Cc1sc(C)c2c1CCC=C2c1c[nH]cn1` , I see its inhibition of SARS-CoV-2 cytopathic effect listed as -1.5

Looking up Cc1cccc(C)c1OCC(=O)N[C@@H](Cc1ccccc1)[C@@H](O)C[C@H](Cc1ccccc1)NC(=O)[C@H](C(C)C)N1CCCNC1=O [lopinavir] , I see its inhibition of SARS-CoV-2 cytopathic effect listed as 1.43

Looking up `CCCCCCCCCCCCCCCC[n+]1ccccc1` , I see its inhibition of SARS-CoV-2 cytopathic effect listed as 1.76

Looking up `O=C1c2ccccc2-c2n[nH]c3cccc1c23` , I see its inhibition of SARS-CoV-2 cytopathic effect listed as -1.61

Looking up `Cc1occc(=O)c1[O-].Cc1occc(=O)c1[O-].[O]=[V+2]` , I see its inhibition of SARS-CoV-2 cytopathic effect listed as 0.44

Looking up CCCCC/C=C\C/C=C\CCCCCCCC(=O)NCCCC(=O)O [GABA-linoleamide] , I see its inhibition of SARS-CoV-2 cytopathic effect listed as 1.92

Looking up C/C(=N\NC(=O)C(NC(=O)c1ccccc1)c1n[nH]c(=O)c2ccccc12)c1cccc(Br)c1 (stereo not drawn) , I see its inhibition of SARS-CoV-2 cytopathic effect listed as 0.8

Looking up `Nc1ncnc(Nc2ccc(Cl)cc2)n1` , I see its inhibition of SARS-CoV-2 cytopathic effect listed as -1.09

Looking up `Cc1ccc(-c2ncc(Cl)cc2-c2ccc(S(C)(=O)=O)cc2)cn1` , I see its inhibition of SARS-CoV-2 cytopathic effect listed as -0.65

Looking up CO/N=C1\CN(c2nc3c(cc2F)c(=O)c(C(=O)O)cn3C2CC2)CC1CN (stereo not drawn) , I see its inhibition of SARS-CoV-2 cytopathic effect listed as 0.76

Looking up `C[C@@H](N)[C@H]1CC[C@H](C(=O)Nc2ccncc2)CC1` , I see its inhibition of SARS-CoV-2 cytopathic effect listed as -2.01

Looking up `Cc1nc(C)c(Cl)c(O)c1Cl` , I see its inhibition of SARS-CoV-2 cytopathic effect listed as 1.07

Looking up `O=C(Nc1ccncc1)c1cc([N+](=O)[O-])ccc1Cl` , I see its inhibition of SARS-CoV-2 cytopathic effect listed as -1.69

Looking up `c1ccc(Cn2c(N3CCNCC3)nc3ccccc32)cc1` , I see its inhibition of SARS-CoV-2 cytopathic effect listed as -0.91

Looking up Clc1ccc(CSC(Cn2ccnc2)c2ccc(Cl)cc2Cl)cc1 (stereo not drawn) , I see its inhibition of SARS-CoV-2 cytopathic effect listed as 0.76

Looking up `O=C(O)c1c(Sc2ccccc2)c2cc(Cl)ccc2n1Cc1ccc(Cl)cc1` , I see its inhibition of SARS-CoV-2 cytopathic effect listed as -0.5

Looking up `COc1cc2c(=O)c(-c3ccc(O)cc3)coc2cc1O` , I see its inhibition of SARS-CoV-2 cytopathic effect listed as -0.96

Looking up `CC/C(=C(\c1ccc(O)cc1)c1ccc(OCCN(C)C)cc1)c1ccccc1` , I see its inhibition of SARS-CoV-2 cytopathic effect listed as 3.76

Looking up `O=C(O)c1ccc(-n2nc(-c3ccccc3O)nc2-c2ccccc2O)cc1` , I see its inhibition of SARS-CoV-2 cytopathic effect listed as -1.32

Looking up `C[C@@H]1NC(=O)[C@@H](N)CNC(=O)[C@H](C2CCNC(=N)N2)NC(=O)/C(=C/NC(N)=O)NC(=O)[C@H](CNC(=O)CC(N)CCCN)NC1=O.N=C1NCC[C@H]([C@@H]2NC(=O)/C(=C/NC(N)=O)NC(=O)[C@H](CNC(=O)C[C@@H](N)CCCN)NC(=O)[C@H](CO)NC(=O)[C@@H](N)CNC2=O)N1` , I see its inhibition of SARS-CoV-2 cytopathic effect listed as -1.08

Looking up CN(C)CCOc1cc(-c2cn[nH]c2)ccc1NC(=O)C1COc2ccccc2O1 (stereo not drawn) , I see its inhibition of SARS-CoV-2 cytopathic effect listed as 0.53

Looking up `O=C(O)[C@H]1O[C@@H](Oc2cc3oc(-c4ccccc4)cc(=O)c3c(O)c2O)[C@H](O)[C@@H](O)[C@@H]1O` , I see its inhibition of SARS-CoV-2 cytopathic effect listed as -1.89

Looking up O=C(O)COCCN1CCN(C(c2ccccc2)c2ccc(Cl)cc2)CC1 (stereo not drawn) , I see its inhibition of SARS-CoV-2 cytopathic effect listed as -0.08

Looking up `Cc1cc(-c2nc3cc(F)ccc3s2)ccc1NC(=O)[C@@H](N)CCCCN` , I see its inhibition of SARS-CoV-2 cytopathic effect listed as -0.54

Looking up `CCC(CC)CC1(C(=O)Nc2ccccc2SC(=O)C(C)C)CCCCC1` , I see its inhibition of SARS-CoV-2 cytopathic effect listed as -1.34

----------
system: Vero E6 infected with SARS-CoV-2; experiment: inhibition of SARS-CoV-2 cytopathic effect; higher = more antiviral protection, active = above 15; settings: 10000 nM; 48 h
I would appreciate it if you answered using one of these outcomes: active, inactive

# lookup: test call for `O=C(O)CCNc1cc(N2CCc3ccccc3CC2)nc(-c2cccnc2)n1`
inactive

# lookup: test call for `O=C(O)[C@@H](S)[C@@H](S)C(=O)O`
inactive

# lookup: test call for `CC(C)(O)CC(=O)NCCn1ccc2ncnc(Nc3ccc(Oc4cccc(C(F)(F)F)c4)c(Cl)c3)c21`
inactive

# lookup: test call for `CC(C)CNc1nc(-c2cccc3ncccc23)cn2c(-c3ccc(C(=O)NC4CC4)cc3)cnc12`
inactive

# lookup: test call for `Cc1nnc2ccc(-c3cccc(C(F)(F)F)c3)nn12`
inactive

# lookup: test call for `COc1ccc2c(c1)c(CC(=O)N1CCOCC1)c(C)n2C(=O)c1ccc(Cl)cc1`
inactive

# lookup: test call for `Cc1ccc2c(Br)cc(Br)c(OC(=O)c3ccccc3)c2n1`
inactive

# lookup: test call for `C=CC[C@@H]1/C=C(\C)C[C@H](C)C[C@H](OC)[C@H]2O[C@@](O)(C(=O)C(=O)N3CCCC[C@H]3C(=O)O[C@H](/C(C)=C/[C@@H]3CC[C@@H](O)[C@H](OC)C3)[C@H](C)[C@@H](O)CC1=O)[C@H](C)C[C@@H]2OC`
inactive

# lookup: test call for `COCC(=O)O[C@]1(CCN(C)CCCc2nc3ccccc3[nH]2)CCc2cc(F)ccc2[C@@H]1C(C)C`
active

----------
test system: Vero E6 infected with SARS-CoV-2; assay: SARS-CoV-2 infection rate relative to infected DMSO; higher = more infection, active = 60 or less; conditions: 24 h
Measure Name: SARS-CoV-2 infection rate

Looking up COc1ccc(-c2nc(N3CCOCC3)c3sc(CN(C)c4ncc(C(=O)NO)cn4)cc3n2)cn1 (10 µM) , I see its SARS-CoV-2 infection rate listed as 116% (inactive)

Looking up CO/N=C(\C(=O)N[C@@H]1C(=O)N2C(C(=O)O)=CCS[C@H]12)c1csc(N)n1 [ceftizoxim] (10 µM) , I see its SARS-CoV-2 infection rate listed as 102% (inactive)

Looking up CC(C)C[C@H](CN)CC(=O)O (10 µM) , I see its SARS-CoV-2 infection rate listed as 106% (inactive)
